Test system: spores of ATCC 630 strain
Test: Inhibition of germination of C. difficile spores (MIC), strain ATCC 630
Format: cell-based
Conditions: Clostridioides difficile, ATCC630, 1 h; strain 630; sodium taurocholate as germinant, BHIS medium, 37° C., OD580 for 60 min; read-out: MIC (minimum concentration that completely inhibits spore germination)
MIC listing for selected molecules.
Units required after the number.

C[C@H](CC(=O)N[C@@H](c1cccs1)C1CC1)[C@H]1CC[C@H]2[C@@H]3C(=O)C[C@@H]4CC(=O)CC[C@]4(C)[C@H]3CC[C@]12C [Compound I-50] : 0.25 µM
C[C@H](CC(=O)NC(c1cccs1)C1CC1)[C@H]1CC[C@H]2[C@@H]3C(=O)C[C@@H]4CC(=O)CC[C@]4(C)[C@H]3CC[C@]12C (stereo partly shown) [Compound I-48] : 0.5 µM
CC(C)[C@@H](NC(=O)C[C@@H](C)[C@H]1CC[C@H]2[C@@H]3[C@H](O)C[C@@H]4CC(=O)CC[C@]4(C)[C@H]3C[C@H](O)[C@]12C)c1ccc(Br)s1 [Compound I-166] : 32 µM
C[C@H](CC(=O)NC(c1ccc(S(=O)(=O)O)s1)C1CC1)[C@H]1CC[C@H]2[C@@H]3C(=O)C[C@@H]4CC(=O)CC[C@]4(C)[C@H]3CC[C@]12C (stereo partly shown) [Compound I-52] : 16 µM
CC[C@@H](NC(=O)C[C@@H](C)[C@H]1CC[C@H]2[C@@H]3CC[C@@H]4C[C@H](O)CC[C@]4(C)[C@H]3CC[C@]12C)c1ccc(Br)s1 [Compound I-147] : 16 µM
CC[C@@H](NC(=O)C[C@@H](C)[C@H]1CC[C@H]2[C@@H]3[C@H](OC(C)=O)CC4=CC(=O)C=C[C@]4(C)[C@H]3CC[C@]12C)c1ccc(Br)s1 [I-159 -1] : 0.5 µM

[ask] Could you please provide reported MIC for CCC(NC(=O)C[C@@H](C)[C@H]1CC[C@H]2[C@@H]3[C@H](O)C[C@@H]4CC(=O)CC[C@]4(C)[C@H]3CC[C@]12C)c1ccc(Cl)s1 (stereo partly shown) [Compound I-86] ? Thanks!
[reply] 0.5 µM

[ask] Could you please provide reported MIC for CCC(NC(=O)C[C@@H](C)[C@H]1CC[C@H]2[C@@H]3C[C@H](O)[C@@H]4C[C@H](O)CC[C@]4(C)[C@H]3CC[C@]12C)c1ccc(Cl)s1 (stereo partly shown) [Compound I-126] ? Thanks!
[reply] 1 µM

[ask] Could you please provide reported MIC for CC[C@H](NC(=O)C[C@@H](C)[C@H]1CC[C@H]2[C@@H]3[C@H](O)C[C@@H]4CC(=O)CC[C@]4(C)[C@H]3CC[C@]12C)c1ccc(Cl)s1 [Compound I-87] ? Thanks!
[reply] 128 µM

[ask] Could you please provide reported MIC for C[C@H](CC(=O)NC(c1cccs1)C1CCCCC1)[C@H]1CC[C@H]2[C@@H]3C(=O)C[C@@H]4CC(=O)CC[C@]4(C)[C@H]3CC[C@]12C (stereo partly shown) [Compound I-54] ? Thanks!
[reply] 256 µM

====

Tested on: spores of ATCC BBA1870 strain
Test: Inhibition of germination of C. difficile spores (MIC), strain ATCC BBA1870
Assay type: cell-based
Conditions: Clostridioides difficile, ATCCBBA1870STRAIN, 1 h; strain 1870; sodium taurocholate as germinant, BHIS medium, 37° C., OD580 for 60 min; read-out: MIC (minimum concentration that completely inhibits spore germination)
Experimental: According to a method disclosed in “The Journal of Infectious Diseases. 2013; 207: 1498-504”, spores of ATCC BBA1870, ATCC 43255 and ATCC 630 strains were obtained by culture and purification, and stored at 4° C. Spore preparation: the C. difficile spores stored at 4° C. were heat-activated for 30 min at 65° C., centrifuged at 9,400 g for 2 min, and washed three times to remove any self-germinating spores. […]
MIC listing for selected compounds.
Write it as a number; the unit µM goes unstated.

Sample answers from the record:
C[C@H](CC(=O)NC(c1ccc(S(=O)(=O)O)s1)C1CC1)[C@H]1CC[C@H]2[C@@H]3C(=O)C[C@@H]4CC(=O)CC[C@]4(C)[C@H]3CC[C@]12C (stereo partly drawn) [Compound I-52] : 16
C[C@H](CC(=O)NCc1cccs1)[C@H]1CC[C@H]2[C@@H]3[C@H](O)C[C@@H]4C[C@H](O)CC[C@]4(C)[C@H]3C[C@H](O)[C@]12C [Compound I-18] : 32

[ask] Check spores of ATCC BBA1870 strain data and give MIC for C[C@H](CC(=O)N[C@@H](c1cccs1)C1CC1)[C@H]1CC[C@H]2[C@@H]3C(=O)C[C@@H]4CC(=O)CC[C@]4(C)[C@H]3CC[C@]12C [Compound I-50] .
[reply] 0.25

====

Tested on: spores of ATCC BBA1870 strain
Test: Inhibition of germination of C. difficile spores (MIC), strain ATCC BBA1870
Format: cell-based
Conditions: Clostridioides difficile, ATCCBBA1870STRAIN, 1 h; strain 1870; sodium taurocholate as germinant, BHIS medium, 37° C., OD580 for 60 min; read-out: MIC (minimum concentration that completely inhibits spore germination)
reportedEndpoint: MIC (µM)
Write it as a number; the unit µM goes unstated.

CC[C@@H](NC(=O)C[C@@H](C)[C@H]1CC[C@H]2[C@@H]3[C@H](O)C[C@@H]4C[C@H](O)CC[C@]4(C)[C@H]3CC[C@]12C)c1ccc(Br)s1 [Compound I-138] : 1
CC[C@@H](NC(=O)C[C@@H](C)[C@H]1CC[C@H]2[C@@H]3[C@H](OC(C)=O)CC4=CC(=O)CC[C@]4(C)[C@H]3CC[C@]12C)c1ccc(Cl)s1 [I-157 -1] : 0.5

[ask] Could you please provide reported MIC for CC(C)C(NC(=O)C[C@@H](C)[C@H]1CC[C@H]2[C@@H]3[C@H](O)C[C@@H]4CC(=O)CC[C@]4(C)[C@H]3CC[C@]12C)c1cccs1 (stereo partly drawn) [Compound I-134] ? Thanks!
[reply] 2

====

Tested on: spores of ATCC 630 strain
Experiment: Inhibition of germination of C. difficile spores (MIC), strain ATCC 630
Type: cell-based
Conditions: Clostridioides difficile, ATCC630, 1 h; strain 630; sodium taurocholate as germinant, BHIS medium, 37° C., OD580 for 60 min; read-out: MIC (minimum concentration that completely inhibits spore germination)
MIC listing for selected compounds.
Write it as a number; the unit µM goes unstated.

Sample answers from the record:
CC(C)[C@@H](NC(=O)C[C@@H](C)[C@H]1CC[C@H]2[C@@H]3[C@H](OS(=O)(=O)O)C[C@@H]4CC(=O)CC[C@]4(C)[C@H]3CC[C@]12C)c1ccc(Cl)s1 : 0.5
CC(C)[C@@H](NC(=O)C[C@@H](C)[C@H]1CC[C@H]2[C@@H]3CC(=O)[C@@H]4CC(=O)CC[C@]4(C)[C@H]3CC[C@]12C)c1ccc(Cl)s1 : 2
CC(C)C(NC(=O)C[C@@H](C)[C@H]1CC[C@H]2[C@@H]3C(=O)C[C@@H]4CC(=O)CC[C@]4(C)[C@H]3CC[C@]12C)c1ccc(S(=O)(=O)O)s1 (stereo partly drawn) : 32

[ask] Could you please provide reported MIC for CCCCCCCC(=O)O[C@@H]1C[C@@H]2CC(=O)CC[C@]2(C)[C@H]2CC[C@]3(C)[C@@H]([C@H](C)CC(=O)N[C@H](CC)c4ccc(Br)s4)CC[C@H]3[C@H]12 ? Thanks!
[reply] 128

[ask] Could you please provide reported MIC for CC[C@@H](NC(=O)C[C@@H](C)[C@H]1CC[C@H]2[C@@H]3C(=O)C[C@@H]4C[C@H](O)CC[C@]4(C)[C@H]3CC[C@]12C)c1ccc(Cl)s1 ? Thanks!
[reply] 2

[ask] Could you please provide reported MIC for CCC(NC(=O)C[C@@H](C)[C@H]1CC[C@H]2[C@@H]3C[C@H](O)[C@@H]4C[C@H](O)CC[C@]4(C)[C@H]3CC[C@]12C)c1cccs1 (stereo partly drawn) ? Thanks!
[reply] 2

[ask] Could you please provide reported MIC for CCCCCCCC(=O)O[C@@H]1C[C@@H]2CC(=O)CC[C@]2(C)[C@H]2CC[C@]3(C)[C@@H]([C@H](C)CC(=O)N[C@H](CC)c4ccc(Cl)s4)CC[C@H]3[C@H]12 ? Thanks!
[reply] 128

[ask] Could you please provide reported MIC for CC(C)[C@@H](NC(=O)C[C@@H](C)[C@H]1CC[C@H]2[C@@H]3[C@H](O)C[C@@H]4C[C@H](O)CC[C@]4(C)[C@H]3C[C@H](O)[C@]12C)c1ccc(Cl)s1 ? Thanks!
[reply] 16

[ask] Could you please provide reported MIC for CC(C)[C@@H](NC(=O)C[C@@H](C)[C@H]1CC[C@H]2[C@@H]3[C@H](OC(=O)CCC(=O)O)C[C@@H]4CC(=O)CC[C@]4(C)[C@H]3CC[C@]12C)c1ccc(Br)s1 ? Thanks!
[reply] 2

meta.source: patent US20230135729A1
